- TARGET ENTITY: dopamine transporter (DAT) (Rattus norvegicus)
- Sequence (P23977 whole entry): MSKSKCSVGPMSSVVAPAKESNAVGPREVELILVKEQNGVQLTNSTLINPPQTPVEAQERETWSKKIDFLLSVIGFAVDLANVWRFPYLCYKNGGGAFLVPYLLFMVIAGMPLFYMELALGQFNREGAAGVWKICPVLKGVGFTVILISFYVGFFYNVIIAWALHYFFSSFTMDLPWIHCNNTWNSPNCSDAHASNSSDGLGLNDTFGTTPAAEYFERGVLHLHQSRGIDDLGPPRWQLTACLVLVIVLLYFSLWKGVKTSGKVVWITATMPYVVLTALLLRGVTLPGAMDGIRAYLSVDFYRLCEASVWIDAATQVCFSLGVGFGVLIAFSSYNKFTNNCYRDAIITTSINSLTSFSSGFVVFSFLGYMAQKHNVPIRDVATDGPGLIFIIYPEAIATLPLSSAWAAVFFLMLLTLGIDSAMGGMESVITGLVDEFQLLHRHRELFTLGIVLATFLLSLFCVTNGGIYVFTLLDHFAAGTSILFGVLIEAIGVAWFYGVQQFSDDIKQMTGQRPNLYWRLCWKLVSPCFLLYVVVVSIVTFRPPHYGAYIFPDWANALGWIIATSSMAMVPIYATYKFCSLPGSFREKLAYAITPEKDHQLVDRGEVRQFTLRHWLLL
- MEASUREMENT NOTES: Release of [^3H]MPP+ via DAT from rat brain synaptosomes
PROPERTY NAME: pEC50
pEC50 is defined as minus the log10 of a concentration measured in mol/L.

Log: dopamine transporter (DAT) (Rattus norvegicus), compound CNC(C)C(=O)c1ccc2c(c1)OCO2 (stereo not shown) [Methylone, 3,4-methylenedioxy-N-methylcathinone] , pEC50 = 6.75

====

- TARGET ENTITY: 5-HT transporter (SERT) (Rattus norvegicus, UniProt P31652)
- Sequence (P31652 whole entry): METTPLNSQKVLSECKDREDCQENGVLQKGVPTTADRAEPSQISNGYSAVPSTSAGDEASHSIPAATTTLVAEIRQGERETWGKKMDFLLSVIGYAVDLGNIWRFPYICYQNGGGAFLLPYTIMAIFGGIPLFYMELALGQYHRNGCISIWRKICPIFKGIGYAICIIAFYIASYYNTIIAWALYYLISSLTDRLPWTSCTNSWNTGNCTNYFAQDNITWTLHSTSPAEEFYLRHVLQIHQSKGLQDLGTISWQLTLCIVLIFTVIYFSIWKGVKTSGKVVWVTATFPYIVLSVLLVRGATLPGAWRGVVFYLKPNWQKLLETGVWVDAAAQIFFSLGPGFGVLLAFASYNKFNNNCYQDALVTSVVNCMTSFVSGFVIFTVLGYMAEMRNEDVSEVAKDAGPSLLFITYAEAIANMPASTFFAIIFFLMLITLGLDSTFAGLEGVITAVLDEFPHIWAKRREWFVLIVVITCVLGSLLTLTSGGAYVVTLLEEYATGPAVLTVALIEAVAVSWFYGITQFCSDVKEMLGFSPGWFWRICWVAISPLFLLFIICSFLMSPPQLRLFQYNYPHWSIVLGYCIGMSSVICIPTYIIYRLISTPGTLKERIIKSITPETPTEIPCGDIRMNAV
- MEASUREMENT NOTES: Release of [^3H]5-HT via SERT from rat brain synaptosomes
Catalogue of compounds with associated pEC50
pEC50 is defined as minus the log10 of a concentration measured in mol/L.

>>> measured_number("CNC(C)C(=O)c1ccc2c(c1)OCO2 (centres unmarked)")
6.47

We next turn to a different compound, shown below.
Input CCCC(NC)C(=O)c1ccc2c(c1)OCO2 (centres unmarked) . Output pEC50: 6.32

====

- TARGET ENTITY: norepinephrine transporter (NET) (Rattus norvegicus)
- Sequence (Q63380 1-617): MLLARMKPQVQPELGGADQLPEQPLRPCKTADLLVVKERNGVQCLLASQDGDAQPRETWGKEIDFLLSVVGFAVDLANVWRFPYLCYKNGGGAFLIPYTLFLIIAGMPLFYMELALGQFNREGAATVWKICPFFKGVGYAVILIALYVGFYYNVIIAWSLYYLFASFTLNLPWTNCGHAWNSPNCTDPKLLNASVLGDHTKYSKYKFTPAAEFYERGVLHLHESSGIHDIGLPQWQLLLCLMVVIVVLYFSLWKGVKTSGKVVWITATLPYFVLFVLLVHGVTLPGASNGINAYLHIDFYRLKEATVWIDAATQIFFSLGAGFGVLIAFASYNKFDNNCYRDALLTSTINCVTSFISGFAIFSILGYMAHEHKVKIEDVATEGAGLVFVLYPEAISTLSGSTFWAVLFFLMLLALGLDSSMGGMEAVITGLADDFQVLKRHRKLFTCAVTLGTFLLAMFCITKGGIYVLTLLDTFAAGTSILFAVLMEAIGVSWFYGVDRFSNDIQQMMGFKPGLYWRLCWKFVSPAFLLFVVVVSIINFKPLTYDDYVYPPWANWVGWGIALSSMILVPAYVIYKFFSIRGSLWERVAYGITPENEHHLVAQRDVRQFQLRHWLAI
- MEASUREMENT NOTES: Release of [^3H]MPP+ via NET from rat brain synaptosomes
PROPERTY NAME: pEC50
pEC50 is defined as minus the log10 of a concentration measured in mol/L.

Log: norepinephrine transporter (NET) (Rattus norvegicus), molecule CNC(C)C(=O)c1ccc2c(c1)OCO2 (stereo not shown) , pEC50 = 7.09
